The entries below are paired with their reported pIC50.
MEASURED_TARGET: hNav1.7 (Homo sapiens (Human), UniProt Q15858)
Sequence (Q15858 other isoform, or with tags, fused parts or gaps): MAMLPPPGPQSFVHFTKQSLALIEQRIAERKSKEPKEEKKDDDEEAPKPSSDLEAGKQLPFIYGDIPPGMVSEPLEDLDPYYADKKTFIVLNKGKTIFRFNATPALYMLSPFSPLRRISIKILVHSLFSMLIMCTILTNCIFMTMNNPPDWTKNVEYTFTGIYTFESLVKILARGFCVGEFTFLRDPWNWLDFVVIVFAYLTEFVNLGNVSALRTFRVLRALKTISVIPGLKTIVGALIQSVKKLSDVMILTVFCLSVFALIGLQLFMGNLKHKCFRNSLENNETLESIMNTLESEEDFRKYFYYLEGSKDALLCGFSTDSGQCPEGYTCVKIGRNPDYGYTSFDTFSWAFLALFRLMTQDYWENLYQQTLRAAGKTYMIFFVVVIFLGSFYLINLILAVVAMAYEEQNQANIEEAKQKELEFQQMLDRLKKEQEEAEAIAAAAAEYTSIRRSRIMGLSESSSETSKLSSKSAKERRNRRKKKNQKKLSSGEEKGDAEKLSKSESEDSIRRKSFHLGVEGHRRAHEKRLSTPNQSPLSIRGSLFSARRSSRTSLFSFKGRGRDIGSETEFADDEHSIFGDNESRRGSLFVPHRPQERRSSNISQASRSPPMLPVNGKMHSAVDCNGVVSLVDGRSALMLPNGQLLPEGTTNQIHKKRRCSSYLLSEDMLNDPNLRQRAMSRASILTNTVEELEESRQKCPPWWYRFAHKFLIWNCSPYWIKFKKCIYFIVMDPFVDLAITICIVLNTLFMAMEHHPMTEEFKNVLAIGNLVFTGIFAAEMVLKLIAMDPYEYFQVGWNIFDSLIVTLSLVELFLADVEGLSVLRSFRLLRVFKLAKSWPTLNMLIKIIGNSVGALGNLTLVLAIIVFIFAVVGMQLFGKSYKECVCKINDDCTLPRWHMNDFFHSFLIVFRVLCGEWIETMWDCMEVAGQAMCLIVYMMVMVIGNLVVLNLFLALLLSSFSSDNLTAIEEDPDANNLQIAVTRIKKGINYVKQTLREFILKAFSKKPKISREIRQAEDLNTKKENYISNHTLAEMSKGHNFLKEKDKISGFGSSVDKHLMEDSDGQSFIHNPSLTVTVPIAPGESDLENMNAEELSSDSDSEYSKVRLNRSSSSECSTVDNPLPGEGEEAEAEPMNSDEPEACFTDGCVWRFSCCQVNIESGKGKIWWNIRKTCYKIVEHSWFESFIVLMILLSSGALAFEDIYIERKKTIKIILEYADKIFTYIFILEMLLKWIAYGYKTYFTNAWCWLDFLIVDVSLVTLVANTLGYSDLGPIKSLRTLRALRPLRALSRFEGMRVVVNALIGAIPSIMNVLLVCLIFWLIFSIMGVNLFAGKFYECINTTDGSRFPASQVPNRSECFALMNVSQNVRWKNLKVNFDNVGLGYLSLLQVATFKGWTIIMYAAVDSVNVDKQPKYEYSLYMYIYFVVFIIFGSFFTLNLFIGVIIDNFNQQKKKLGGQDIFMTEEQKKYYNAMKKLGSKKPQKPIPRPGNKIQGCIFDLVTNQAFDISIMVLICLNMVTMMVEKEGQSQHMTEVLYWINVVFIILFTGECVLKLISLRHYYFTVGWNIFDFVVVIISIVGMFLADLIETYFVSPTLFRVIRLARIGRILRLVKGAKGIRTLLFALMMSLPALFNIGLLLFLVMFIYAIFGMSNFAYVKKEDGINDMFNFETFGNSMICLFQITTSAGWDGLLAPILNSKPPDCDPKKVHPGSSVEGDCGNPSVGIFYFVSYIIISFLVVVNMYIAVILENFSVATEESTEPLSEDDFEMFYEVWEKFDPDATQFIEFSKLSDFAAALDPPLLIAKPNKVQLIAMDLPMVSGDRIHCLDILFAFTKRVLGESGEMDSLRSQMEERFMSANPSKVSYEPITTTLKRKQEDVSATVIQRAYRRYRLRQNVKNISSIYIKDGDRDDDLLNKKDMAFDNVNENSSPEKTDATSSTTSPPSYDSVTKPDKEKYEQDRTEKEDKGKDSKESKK
Sequence (Q07699 19-218 partner): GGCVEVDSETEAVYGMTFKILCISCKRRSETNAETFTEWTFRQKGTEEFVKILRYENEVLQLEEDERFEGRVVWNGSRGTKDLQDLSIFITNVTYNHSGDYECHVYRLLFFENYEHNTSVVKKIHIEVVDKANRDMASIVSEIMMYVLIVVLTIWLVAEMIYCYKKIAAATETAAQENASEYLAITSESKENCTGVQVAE
ASSAY_NOTES: Tritiated sulfonamide competitive binding to membranes from cells expressing hNav1.7 and the β1 subunit
EXPERIMENTAL_PARAMETERS: read-out: Ligand Binding Assay; 100 pM [3H]compound, membranes with hNav1.7 and β1 subunit, 18 h, room temperature
The meaning of pIC50 here: minus log10 of the concentration in molar units.

Take a look at these entries with their results.
> print(dat)
                                   compound  measure.name  value.reported
1  CS(=O)(=O)NC(=O)c1cc(C2CC2)c(OCC2CN(Cc3ccc(C(F)(F)F)c(F)c3)C2)cc1F         pIC50            7.38
2  C[C@@H](c1cc(Cl)cc(Cl)c1)N1CCC(C)(COc2cc(F)c(C(=O)NS(C)(=O)=O)cc2C2CC2)CC1 (single isomer, unassigned)         pIC50            8.77
3  CC(c1cc(F)cc(F)c1)N1CC(COc2cc(F)c(C(=O)NS(C)(=O)=O)cc2C2CC2)C1 (stereo not shown)         pIC50            7.31

We next turn to a different compound, shown below.
I am curious: what pIC50 value has been reported for `CC1(COc2cc(F)c(C(=O)NS(=O)(=O)C3CC3)cc2C2CC2)CN(C(c2ccccc2)c2ccccc2)C1` ? 8.22

* * *

MEASURED_TARGET: hNav1.7 (Homo sapiens (Human), UniProt Q15858)
ASSAY_NOTES: Tritiated sulfonamide competitive binding to membranes from cells expressing hNav1.7 and the β1 subunit;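 also: Filter-bound radioactivity counted by liquid scintillation, nonspecific binding defined with excess unlabelled ligand, IC50 fitted to percent inhibition of specific binding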
EXPERIMENTAL_PARAMETERS: read-out: Ligand Binding Assay; 100 pM [3H]compound, membranes with hNav1.7 and β1 subunit, 18 h, room temperature
Where a name gives a salt, the structure may show the parent alone.
MEASURE_NAME: log10 IC50 (log10 of the value in nM)
The common logarithm of IC50 in nM is what is listed.

> print(dat)
                                   compound  value.reported
1  CS(=O)(=O)NC(=O)c1cc(C2CC2)c(OCC2CCN(C3(c4cc(Cl)cc(Cl)c4)COC3)CC2)cc1F [Example 174]            1.08
2  O=C(NS(=O)(=O)C1CC1)c1cc(C2CC2)c(OCC2CCN(Cc3ccc(Br)cc3Cl)CC2)cc1F [Example 414, trifluoroacetic acid salt]            0.58

# value lookup — system hNav1.7 (Homo sapiens (Human), UniProt Q15858), readout log10 IC50, item CCS(=O)(=O)NC(=O)c1cc(C2CC2)c(OCC2CCN([C@@](C)(COC)c3cc(Cl)cc(Cl)c3)CC2)cc1F (single isomer, unassigned) [Example 204] 0.43

# value lookup — system hNav1.7 (Homo sapiens (Human), UniProt Q15858), readout log10 IC50, item CCCCS(=O)(=O)NC(=O)c1cc(C2CC2)c(OCC2CN(C(c3ccccc3)c3ccccc3)C2)cc1F [Example 65] 1.53

# value lookup — system hNav1.7 (Homo sapiens (Human), UniProt Q15858), readout log10 IC50, item C[C@H](c1cc(Cl)cc(Cl)c1)N1CC(C)(COc2cc(F)c(C(=O)NS(C)(=O)=O)cc2C2CC2)C1 (single isomer, unassigned) [Example 185] 0.85

# value lookup — system hNav1.7 (Homo sapiens (Human), UniProt Q15858), readout log10 IC50, item CS(=O)(=O)NC(=O)c1cc(C2CC2)c(OCC2CCN(Cc3ccc(F)cc3Cl)CC2)cc1F [Example 105] 1.21
